B1: Pistol ribozyme (parent)
chain: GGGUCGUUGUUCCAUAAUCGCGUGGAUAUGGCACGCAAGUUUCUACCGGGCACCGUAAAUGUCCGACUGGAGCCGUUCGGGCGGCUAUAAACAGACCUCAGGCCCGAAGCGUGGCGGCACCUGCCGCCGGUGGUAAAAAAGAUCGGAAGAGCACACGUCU

variants of: B1; assay: aptazyme ON/OFF ratio, guanine; higher = stronger switching; co-transcriptional cleavage with and without guanine
measuredQuantity: aptazyme ON/OFF ratio
# output: bare number, no unit

[Q] Return aptazyme ON/OFF ratio (reported value) for this variant: U7A U8A G9U U10G U11C C12G C13A
[A] 1.09

[Q] Return value of aptazyme ON/OFF ratio for input U7G U8A G9C U10A C12A C13A , no commentary.
[A] 1.05

[Q] Give aptazyme ON/OFF ratio for U8C G9A U10G U11G C12G C13G
[A] 1.09

[Q] State its aptazyme ON/OFF ratio: U7G G9U C12U C13A
[A] 1.28
